- Measurement Target: Alpha-glucosidase MAL12 (Saccharomyces cerevisiae (strain ATCC 204508 / S288c))
- Sequence (P53341 whole entry): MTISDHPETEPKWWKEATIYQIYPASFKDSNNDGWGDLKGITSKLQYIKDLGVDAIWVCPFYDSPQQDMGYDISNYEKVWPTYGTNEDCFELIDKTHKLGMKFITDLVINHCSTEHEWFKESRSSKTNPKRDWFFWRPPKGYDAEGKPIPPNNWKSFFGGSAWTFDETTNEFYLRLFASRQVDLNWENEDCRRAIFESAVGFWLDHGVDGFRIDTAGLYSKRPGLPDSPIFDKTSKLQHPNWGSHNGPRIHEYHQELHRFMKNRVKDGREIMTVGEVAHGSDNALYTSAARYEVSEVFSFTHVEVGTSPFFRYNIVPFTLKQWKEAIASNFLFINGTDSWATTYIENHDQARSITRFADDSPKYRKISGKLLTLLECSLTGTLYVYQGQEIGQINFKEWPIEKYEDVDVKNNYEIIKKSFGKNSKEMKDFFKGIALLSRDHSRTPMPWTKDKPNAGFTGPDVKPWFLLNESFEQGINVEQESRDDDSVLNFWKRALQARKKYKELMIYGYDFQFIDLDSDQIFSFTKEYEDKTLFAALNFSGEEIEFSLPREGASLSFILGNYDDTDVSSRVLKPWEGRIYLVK
- Test Protocol: Alpha-glucosidase Assay
Kindly state IC50 for each of the entries shown.
All answers are understood in µM, so give the number only.

Value lookup for IC50; key = O=C(CSc1nnc2c(n1)[nH]c1ccccc12)c1cc2ccccc2oc1=O
37.4

What do we get for O=C(CSc1nnc2c(n1)[nH]c1ccccc12)c1cccc(Br)c1 ?
37.1

What do we get for O=C(CSc1nnc2c(n1)[nH]c1ccccc12)c1cccc(F)c1 ?
38.1

What do we get for O=C(CSc1nnc2c(n1)[nH]c1ccccc12)c1cccc(O)c1 ?
2.46

What do we get for CC(Sc1nnc2c(n1)[nH]c1ccccc12)C(=O)c1ccccc1 (stereo not given) ?
36.9

What do we get for COc1ccccc1C(=O)CSc1nnc2c(n1)[nH]c1ccccc12 ?
51.6

What do we get for O=C(CSc1nnc2c(n1)[nH]c1ccccc12)c1ccc(Br)cc1 ?
37.8

What do we get for O=C(CSc1nnc2c(n1)[nH]c1ccccc12)c1ccc(-c2ccccc2)cc1 ?
78.4

What do we get for COc1cccc(C(=O)CSc2nnc3c(n2)[nH]c2ccccc23)c1 ?
313

What do we get for COc1ccc(C(=O)CSc2nnc3c(n2)[nH]c2ccccc23)cc1 ?
28.9
